measurement-target: MMP9 (human neutrophil gelatinase B) (Homo sapiens, UniProt P14780)
Sequence (P14780 94-707): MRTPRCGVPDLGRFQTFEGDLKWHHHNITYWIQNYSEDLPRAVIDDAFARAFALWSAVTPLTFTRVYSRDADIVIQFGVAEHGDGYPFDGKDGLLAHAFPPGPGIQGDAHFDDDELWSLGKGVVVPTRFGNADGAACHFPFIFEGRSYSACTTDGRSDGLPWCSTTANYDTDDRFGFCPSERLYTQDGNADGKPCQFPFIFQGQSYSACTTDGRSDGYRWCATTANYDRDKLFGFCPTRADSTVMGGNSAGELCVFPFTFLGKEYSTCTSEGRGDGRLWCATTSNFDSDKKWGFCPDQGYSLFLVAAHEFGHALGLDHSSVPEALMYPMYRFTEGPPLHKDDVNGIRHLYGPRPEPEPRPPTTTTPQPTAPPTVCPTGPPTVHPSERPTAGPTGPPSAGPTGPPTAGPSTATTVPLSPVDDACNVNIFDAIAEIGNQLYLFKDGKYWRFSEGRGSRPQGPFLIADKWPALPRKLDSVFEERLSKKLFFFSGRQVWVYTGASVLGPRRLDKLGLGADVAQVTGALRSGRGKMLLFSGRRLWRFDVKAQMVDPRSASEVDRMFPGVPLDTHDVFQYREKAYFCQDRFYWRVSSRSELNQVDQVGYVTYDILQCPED
assay-comment: In vitro gelatinase assay (thiopeptide substrate, DTNB)
quantity-name: pIC50
Lab note — pIC50 values are minus log10 of concentrations in M.

Qu. Tell me the measured pIC50 of COc1ccc(S(=O)(=O)C2(C(=O)NO)CCCN(Cc3ccccc3)C2)cc1 (stereo not shown) , please.
Ans. 6.14
